conditions: in acetonitrile, 313.15 K
ASSAY_ENDPOINT: solubility (mole fraction)

QUERY_SMILES	ASSAY_ENDPOINT	MEAS_VALUE
OCc1ccc(O[C@@H]2O[C@H](CO)[C@@H](O)[C@H](O)[C@H]2O)cc1	solubility (mole fraction)	0.00188

###

settings: in acetone, 278.15 K

QUERY_SMILES	solubility (mole fraction)
OCc1ccc(O[C@@H]2O[C@H](CO)[C@@H](O)[C@H](O)[C@H]2O)cc1	0.00117

###

settings: in toluene, 273.15 K
ASSAY_ENDPOINT: solubility (mole fraction)

QUERY_SMILES	ASSAY_ENDPOINT	MEAS_VALUE
OCc1ccc(O[C@@H]2O[C@H](CO)[C@@H](O)[C@H](O)[C@H]2O)cc1	solubility (mole fraction)	0.00148
